B1: SPOPL (parent)
chain: PDDKLTLFCEVSVVQDSVNISGHT

- Variants of: B1
- protocolNotes: protein stability index of a GFP-peptide fusion (GPS, HEK-293T) (PSI 1-6); higher = more stable;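 also: lentivirally expressed fusions sorted by FACS into six bins by GFP to DsRed ratio, PSI derived from sequencing read proportions per bin multiplied by bin number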
- conditionParameters: c terminus: a fixed tail appended
Decide using protein stability index: a value greater than or equal to 2 is yes, a smaller one is no.

residues	qualitativeLabel
PDDKLTLFIEVSVVQDSVNISGHT [C9I]	yes
PDDKLTLFKEVSVVQDSVNISGHT [C9K]	yes
PDDKLTLFCEVSQVQDSVNISGHT [V13Q]	yes
PDDKLTLFCEVSVVQDSVNIDGHT [S21D]	yes
PDDKLTLFCEVSVVQDSFNISGHT [V18F]	no
